Hey, just so you know, these numbers are from patent EP3383875B1.

# Test system: MDA-MB435
# EXPERIMENT SUMMARY: MTT assay on cancer cell line MDA-MB435
# Type: cell-based, Human
# CONDITION: Homo sapiens, MDA-MB-435; MDA-MB435; at 10µM; Table 8; read-out: In vitro cell inhibition, % of inhibition, MDA-MB435
VALUE KIND: inhibition at 10 µM

1) Fc1cccc(-c2cnc3[nH]cc(-c4ccnc(NC5CC5)n4)c3c2)c1 : > 70%
2) COc1ccc(-c2cnc3[nH]cc(-c4ccnc(NCCc5ccccc5)n4)c3c2)cc1 : > 50%
3) COc1ccc(-c2cnc3[nH]cc(-c4ccnc(NC5CCCC5)n4)c3c2)cc1 : > 50%
4) Fc1ccc(-c2cnc3[nH]cc(-c4ccnc(NC5CCCC5)n4)c3c2)cc1 : < 50%
